- Tested on: diaphysis and metaphysis tissues of rat femur
- Assay Info: Calcium level in bone tissues in a bone tissue culture system
- Condition Details: Example 2; 48 h culture; β-cryptoxanthin 10^−9 M, zinc, genistein, menaquinone-7 each 10^−6 M; mean ± SD, 5 rats
Readout Type: Calcium level in bone tissues, metaphysis part
Just so you know, I need the unit written after the number.

Worked cases, answers included:
compound=CC1=C(/C=C/C(C)=C/C=C/C(C)=C/C=C/C=C(C)/C=C/C=C(C)/C=C/C2=C(C)C[C@@H](O)CC2(C)C)C(C)(C)CCC1 measured_value="189.5 ± 3.44 mg/g bone dry weight"
compound="CC(C)=CCC/C(C)=C/CC/C(C)=C/CC/C(C)=C/CC/C(C)=C/CC/C(C)=C/CC/C(C)=C/CC1=C(C)C(=O)c2ccccc2C1=O [menaquinone-7, reference compound]" measured_value="184.9 ± 2.70 mg/g bone dry weight"
compound="O=S(=O)([O-])[O-].[Zn+2] [zinc, zinc sulfate]" measured_value="190.2 ± 2.53 mg/g bone dry weight"

Continue with the next compound.
Problem: Recorded Calcium level in bone tissues, metaphysis part for O=c1c(-c2ccc(O)cc2)coc2cc(O)cc(O)c12 [genistein, reference compound] , please?
Result: 189.3 ± 6.40 mg/g bone dry weight
